As shown below, each of these binders has a reported pKd value.
Biological target: T1, human LRRC33-proTGFβ1 complex (human, UniProt Q86YC3 19-650; P01137 30-390)
T1 construct: also called hLRRC33-proTGFβ1; hLRRC33
T1 sequence (Q86YC3 other isoform, or with tags, fused parts or gaps limits assumed, chain 1 of 2): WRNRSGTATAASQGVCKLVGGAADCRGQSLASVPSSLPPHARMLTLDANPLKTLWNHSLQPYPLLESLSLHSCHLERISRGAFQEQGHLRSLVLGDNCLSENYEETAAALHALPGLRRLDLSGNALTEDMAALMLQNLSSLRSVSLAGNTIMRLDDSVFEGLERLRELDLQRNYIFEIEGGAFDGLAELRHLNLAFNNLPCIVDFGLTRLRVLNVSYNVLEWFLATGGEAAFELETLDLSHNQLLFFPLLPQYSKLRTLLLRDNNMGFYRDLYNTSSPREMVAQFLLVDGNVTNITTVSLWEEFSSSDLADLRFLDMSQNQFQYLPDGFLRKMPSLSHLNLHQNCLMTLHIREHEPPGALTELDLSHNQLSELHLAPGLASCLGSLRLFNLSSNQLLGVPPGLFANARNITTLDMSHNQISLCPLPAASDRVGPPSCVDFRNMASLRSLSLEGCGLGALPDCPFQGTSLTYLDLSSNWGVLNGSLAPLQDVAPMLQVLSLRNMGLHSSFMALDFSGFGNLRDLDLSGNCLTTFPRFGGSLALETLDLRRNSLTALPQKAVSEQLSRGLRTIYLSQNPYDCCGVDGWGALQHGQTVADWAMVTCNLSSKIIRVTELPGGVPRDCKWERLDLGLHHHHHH
T1 sequence (P01137 30-390 limits assumed, chain 2 of 2): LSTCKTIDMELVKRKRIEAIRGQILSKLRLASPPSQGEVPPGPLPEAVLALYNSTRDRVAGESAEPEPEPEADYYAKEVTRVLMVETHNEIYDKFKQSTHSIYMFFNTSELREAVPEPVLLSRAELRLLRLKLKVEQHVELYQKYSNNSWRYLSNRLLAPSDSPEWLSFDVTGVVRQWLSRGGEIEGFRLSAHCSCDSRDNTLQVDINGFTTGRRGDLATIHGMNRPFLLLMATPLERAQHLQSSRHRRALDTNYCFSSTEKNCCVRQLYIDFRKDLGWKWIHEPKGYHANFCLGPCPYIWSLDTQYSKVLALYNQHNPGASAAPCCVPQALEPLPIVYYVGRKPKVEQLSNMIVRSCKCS
Assay: MSD-SET, solution equilibrium titration
# log scale: pKd equals minus log10 of the concentration in mol/L

Worked set:
Ab29 (antibody, IgG4, V domains shown) VH: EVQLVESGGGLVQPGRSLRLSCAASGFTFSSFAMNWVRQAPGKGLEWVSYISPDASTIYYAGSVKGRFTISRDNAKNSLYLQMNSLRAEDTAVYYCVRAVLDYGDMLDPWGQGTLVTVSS VL: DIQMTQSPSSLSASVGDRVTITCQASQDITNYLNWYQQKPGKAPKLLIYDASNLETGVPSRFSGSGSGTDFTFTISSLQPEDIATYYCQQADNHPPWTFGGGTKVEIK ... 10.37
Ab26 (antibody, IgG4, V domains shown) VH: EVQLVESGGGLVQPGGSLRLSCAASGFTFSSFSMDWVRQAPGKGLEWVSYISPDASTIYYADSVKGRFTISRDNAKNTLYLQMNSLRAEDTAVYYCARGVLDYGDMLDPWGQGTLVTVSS VL: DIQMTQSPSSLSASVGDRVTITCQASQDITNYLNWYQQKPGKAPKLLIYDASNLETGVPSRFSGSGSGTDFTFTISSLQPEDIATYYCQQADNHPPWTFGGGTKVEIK ... 9.89

# input What does the record list as pKd for Ab6 (antibody, human IgG4 S228P, kappa, V domains shown) VH: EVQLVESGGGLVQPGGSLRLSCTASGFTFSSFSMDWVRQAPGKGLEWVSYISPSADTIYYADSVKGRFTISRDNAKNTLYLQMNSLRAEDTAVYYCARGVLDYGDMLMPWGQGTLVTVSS VL: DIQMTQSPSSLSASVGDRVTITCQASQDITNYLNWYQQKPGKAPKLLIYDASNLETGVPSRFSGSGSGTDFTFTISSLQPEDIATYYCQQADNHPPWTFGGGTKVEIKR ?
# output 10.20

# input What does the record list as pKd for Ab22 (antibody, IgG4, V domains shown) VH: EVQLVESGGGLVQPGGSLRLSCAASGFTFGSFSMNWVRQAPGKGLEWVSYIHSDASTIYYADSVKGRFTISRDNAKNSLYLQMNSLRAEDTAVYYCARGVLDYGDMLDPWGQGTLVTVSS VL: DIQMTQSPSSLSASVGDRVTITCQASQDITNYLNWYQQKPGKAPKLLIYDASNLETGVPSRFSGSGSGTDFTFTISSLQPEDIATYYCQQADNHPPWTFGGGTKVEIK ?
# output 9.70
